Measured values drawn from patent US4160829A for this set.

Collected dose excreted at 6 h values appear next to each entry.
- experiment notes: blood and urine contents after intramuscular administration in rabbits
- Assay type: in vivo, rabbits "Nieuw Zeelander"
- reported conditions: rabbit, urine, im; after 6 hr, intramuscular 50 mg/kg; read-out: Secretion of compound in urine in % of the administered dose
Write the number in % without appending the unit.

• CC(=O)OCC1=C(C(=O)O)N2C(=O)[C@@H](NC(=O)Cc3nc(CC(=O)O)no3)[C@H]2SC1 [Example 35] = 35.9

Prompt: Identify dose excreted at 6 h associated with the compound Cc1noc(CC(=O)N[C@@H]2C(=O)N3C(C(=O)O)=C(CSc4nnnn4C)CS[C@H]23)n1 [Compound G]
Completion: 51.3

----------
- experiment notes: stability in refluxing slightly moist diethyl ether (thin-layer chromatography)
- Assay type: physicochemical
- reported conditions: refluxed 24 hours, read-out: destruction to 5-methyl-1,2,4-oxadiazol-3-yl-acetic acid
measure: degraded at 24 h

Prompt: Return reported degraded at 24 h. Input molecule: O=C(O)Cc1noc(CC(=O)O)n1
Completion: < 5%

----------
- experiment notes: blood and urine contents after intramuscular administration in rabbits
- Type: in vivo, rabbits "Nieuw Zeelander"
- reported conditions: rabbit, serum, im; after 4 hr, intramuscular 50 mg/kg; read-out: Serumlevel
measure: concentration at 4 h (ng/mL)
I only need the number, in ng/mL, no unit after it.

- Cc1noc(CC(=O)N[C@@H]2C(=O)N3C(C(=O)O)=C(CSc4nnnn4C)CS[C@H]23)n1: 6700

Next, consider the following compound.
Prompt: Complete the entry with concentration at 4 h for CC(=O)OCC1=C(C(=O)O)N2C(=O)[C@@H](NC(=O)Cc3nc(CC(=O)O)no3)[C@H]2SC1
Completion: 1800

----------
- experiment notes: blood and urine contents after intramuscular administration in rabbits
- Type: in vivo, rabbits "Nieuw Zeelander"
- reported conditions: rabbit, serum, im; after 1/4 hr, intramuscular 50 mg/kg; read-out: Serumlevel
concentration at 0.25 h values, listed per item
Only the number, expressed in µg/mL, is required.

- Cc1noc(CC(=O)N[C@@H]2C(=O)N3C(C(=O)O)=C(CSc4nnnn4C)CS[C@H]23)n1: 157

# next molecule below
Prompt: For the molecule CC(=O)OCC1=C(C(=O)O)N2C(=O)[C@@H](NC(=O)Cc3nc(CC(=O)O)no3)[C@H]2SC1 , report concentration at 0.25 h.
Completion: 119

----------
- Test system: Staph.aureus A 321
- experiment notes: agar serial dilution test
- Format: cell-based, Staphylococcus aureus
- reported conditions: Staphylococcus aureus, A321, 24 h, agar serial dilution, 24 hours, 37° C.; read-out: minimal inhibitory concentration (MIC)
Below, each entry is listed with its recorded MIC.
# unit: µg/mL | format: bare number

• Cc1noc(C(C(=O)N[C@@H]2C(=O)N3[C@@H]2SC(C)(C)[C@@H]3C(=O)O)c2ccccc2)n1 (mixture of isomers) = 0.25

Prompt: Fill in reported MIC for this entry: Cc1nc(CC(=O)N[C@@H]2C(=O)N3[C@@H]2SC(C)(C)[C@@H]3C(=O)O)no1
Completion: 0.12

Prompt: Determine its reported MIC: CCc1noc(C(C)C(=O)N[C@@H]2C(=O)N3C(C(=O)O)=C(COC(C)=O)CS[C@H]23)n1 (mixture of isomers) [Example 11K]
Completion: 1.5

Prompt: Supply recorded MIC for Cc1noc(CC(=O)N[C@@H]2C(=O)N3C(C(=O)O)=C(CSc4nnnn4C)CS[C@H]23)n1 here.
Completion: 0.25
